System: K4 kissing-loop RNA reporter;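 also: bound reporter read as fluorescence of individual clusters on recovered sequencing chips by microscopy, with normalized cluster intensities fitted with a binding model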
Assay: apparent KD of K4 kissing-loop reporter; higher = weaker reporter binding
Conditions: Eterna round: R107; input ligand: theophylline 20 uM
So I've got a bunch of sequences here, and I need their apparent KD of K4 kissing-loop reporter values.
Please answer in the form of a number followed by its unit of measurement.

Lookup: // fetch K4 kissing-loop RNA reporter apparent KD of K4 kissing-loop reporter for AAAAUAAACCAGUGAUGUUGGUAGCCAGAUACCAGCGACGAAAGUCGCCCUUGGCAGCUGUGGACGUACAAAAUAAGUACGUCCU
Found: 238 nM

Lookup: Now consider GCACUGAAGUGAUGUUUUUGUGCACGUUGAAAGGAUAUCUGCUUGUAGAGAAGGUUCUGUUUGUGCGGAGCGGGCGUUACCGGCA [theeternabot_exclusion_KL_FMN_A_32] and answer again.
Found: 285 nM

Lookup: Now consider UUGUUUGGUUGAGAGGUUGGGCGAGAUGAUACCAGUAUAGUAUUGUACCCUUGGCAGCAUAGGAGAGAUAUAGUGAUGUUGUAUG [SSTheophA.W] and answer again.
Found: 416 nM

Lookup: Now consider UGCAUGCGUAGAGUGAUGUUCUAAGAUGAUACCAGUGCGGAAACGCACCCUUGGCAGCAUCUGACUGCAUGCACGUCGAAAGACG and answer again.
Found: 399 nM

Lookup: Now consider UAUCUUUGCUGAAGGAGCGAGCAUGUUGGAGUGAUGUUCCGAGCGAGUGAUGUUCGCAUAGCUCAGGUAGGUCGCAGUGGGAGGA [Same State Arginie B GF 16] and answer again.
Found: 164 nM

Lookup: Now consider GGAUCCGCCAGUGAUGUUGGAGAAAACUCCAAGGAUAUGACGAAAGUCAGAAGGUGGUAGACUGGACAAAGUCCGGUCGGAUCCA [FmnA 26 #SwitchBubble #K4Early] and answer again.
Found: 157 nM

Lookup: Now consider UGAUACCAGACGGCCGCCACUGCACCAGUCAAUGACUGAGCGCGGUGGCGCUCAGUGAUGUUGAGCAGGACCGGGUCUGGUAUCU [Mod of Eli's TrypBX 8 v4] and answer again.
Found: 145 nM

Lookup: Now consider CAUACGCAUGGAGGAUAUGGGAUUUCUCAUAUUAACCUGUAUCAGGUAUCUCAGUGAUGUUGAGACUCAGAAGGCCAUGUGUAUG [Ex FMN B 25] and answer again.
Found: 354 nM

Lookup: Now consider GGUAGCAUGGCGGCCGCCACUUCGAAUAAGUGAUGUUUAUUUGACUGAGCACCCUAUGCCAUGUGAAGGACCGGGCCAUGCUACC and answer again.
Found: 208 nM

Lookup: Now consider GGGCGUUACGGAGUGAUGUUCCGUAGCGAUACCAGCCAUUGCGAUGGCCCUUGGCAGCGCUAUAAGCAUAGAAUUGUAGCGCUUA [Theo A Ex t7b] and answer again.
Found: 102 nM

Lookup: Now consider GUAUCGCUAGGAGGAUAUUUCAAUUCGCCUAUAAUAGGUGAUACGGAGUGAUGUUCCGAUUUACGGAAAGAAGGCCUAGUGAUAC [FMN B 10] and answer again.
Found: 239 nM

Lookup: Now consider CGGUAGUCUAUAGGGUCCAGUGAUGUUGGACAGGAUAUGCUACGCCGCAGAAGGGUCCAACUGGUUGUGAAGUUGGCUACUAGGC [Somaaxe] and answer again.
Found: 147 nM

Lookup: Now consider GGUAGCAUGGCGGCCGCCACUAAUACUUCGUAGCCUGUAGCCGGCUUCGUAGAGUGAUGUUCUAUUAGGACCGGGCCAUGCUACC and answer again.
Found: 526 nM

----------
So I've got a bunch of sequences here, and I need their apparent KD of MS2 coat protein values.
System: MS2 coat protein
Assay: apparent KD of MS2 coat protein, switch OFF state (with FMN for OFF switches, without FMN for ON switches); designed switch direction (-1 OFF switch, 1 ON switch): 1; higher = weaker reporter binding
Conditions: FMN input: 0 or 200 uM; Eterna round: R93 (includes R88 designs)
Give the value in nM but do not write nM after it.

Lookup: Sample AACUAACAUGAGGAUCACCCAUGUAUUCAAACAUGAGGAUAUAUAACACAUCAUCGACAGAUAGAAGGCAUAAAUA [JR_SS001_Sub1205] — what was its apparent KD of MS2 coat protein?
Found: 78.5

Lookup: Now consider GCCUAACAUGAGGAUCACCCAUGUAGUGGGUUGUUAGGAUAUGGGCCGUGUAACACUGCACCAGAAGGAAUAGAAG [Atinanqu] and answer again.
Found: 532

Lookup: Now consider AAAUGACAUGAGGAUCACCCAUGUCCACCAAACGGAGGAUAUUGGGCGGCAAAACGUUGUUAAGAAGGCCGAAAAA [SS1-1.1] and answer again.
Found: 28

Lookup: Now consider AAAAGACAUGAGGAUCACCCAUGUAAAAACAUAGGAGGAUAUGUCUGGAAACCAGACUGGACAGAAGGCCUUUGUC [SS1 - 63] and answer again.
Found: 29.4

Lookup: Now consider AGGAAACAUGAGGAUCACCCAUGUAUAAAAAAUACAGGAUAUGGAAACACGAAAGUGAAACCAGAAGGGUAAAAAA [77%, Mat - Mod of Eli, 32] and answer again.
Found: 39.9

Lookup: Now consider UGGAGACAUGAGGAUCACCCAUGUGAGAAGAGGCGAGGAUAUCGAAAGAAAGAAGAGAAACGAGAAGGCGCGAGAG [salish99-SS1-041] and answer again.
Found: 51.2

Lookup: Now consider UAUCCGGCAGUGUAGGAUAUGUUGUAGUAAACAUGAGGAUCACCCAUGUGGAUUAUAUAAGAUUCACAGAAGGGCACUGCAUUGC [Laonis] and answer again.
Found: 226

----------
So I've got a bunch of sequences here, and I need their apparent KD of MS2 coat protein values.
Test system: MS2 coat protein
Test: apparent KD of MS2 coat protein; designed switch direction (-1 OFF switch, 1 ON switch): -1; higher = weaker reporter binding
Settings: input ligand: none
Give the value in nM but do not write nM after it.

Lookup: // fetch MS2 coat protein apparent KD of MS2 coat protein for AGGUACUUCAGGAGACAUGAGGAUCACCCAUGUUGAGUUAGCGAGGAUAUCGGUAACCAUUGUUAUGAGAAGGCGCAAACCAGA [Ex NG3 #42] (Eterna round: R96, puzzle: Exclusion NG 3)
Found: 15.3

Lookup: Now consider GUUCAACAUGAGGAUCACCCAUGUCAGGAUAUGCGAAUUUCAUCAAAAGAUGAAAUUUGCAGAAGGGACUGAAC [Omei Ex1 A30] (Eterna round: R97, puzzle: Exclusion 1) and answer again.
Found: 27.2

Lookup: Now consider CAGCUGAAAGUGAGGAUAUCUAGAGCUUCGGCUCUAGAGAAGGCACAUGAGGAUCACCCAUGUCUCAACAGCUG [BmEx4/1-A1] (Eterna round: R97, puzzle: Brourd's mod of Exclusion 4) and answer again.
Found: 16.9

Lookup: Now consider GUCCUGGACUAUCACAAGCACAUGAGGAUCACCCAUGUCAUGGGUGGGUCACUAAGUACGGCUACUGCUCGUCUUAU [Cac Sensor turn off var1 sub8] (Eterna round: R97, puzzle: Sensor, turn-off variant 1) and answer again.
Found: 495

Lookup: Now consider ACAUGUAAUGCAGGAUAUGGGACACAUGAGGAUCACCCAUGUGACCAUAUGUAAUGCUAAGAGUCUCAGAAGGGUAUGUACAUG [Ex NG2 #46] (Eterna round: R96, puzzle: Exclusion NG 2) and answer again.
Found: 12.9

Lookup: Now consider GACCCAACCGUUAGGAUAUAGUCGACCUACGGCGACUAGAAGGAACAUGAGGAUCACCCAUGUGUGCGCACAAC [Eternabot (Original) Solution 25] (Eterna round: R97, puzzle: Brourd's mod of Exclusion 4) and answer again.
Found: 60.8

Lookup: Now consider GAGCCAUCGUGAGAUGGCUCAAUUACAUGAGGAUCACCCAUGUAGGAUAUCGAUUGCUUUGCAGUCGAGAAGGACAUGUUUAAU [JL ENG3 3.00] (Eterna round: R96, puzzle: Exclusion NG 3) and answer again.
Found: 30.3

Lookup: Now consider GUUUAGUGAGGAUAUGUGGCUUCGAUCGUGCGCGGUCUGCUACAGAAGGCACAUGAGGAUCACCCAUGUUCCUC [salish99_ex4_r4_308] (Eterna round: R97, puzzle: Exclusion 4) and answer again.
Found: 123

Lookup: Now consider CUGCUCCGUGUAGGAUAUGCAUACUCCCAUUAUGCAGAAGGACAUGAGGAUCACCCAUGUAUGUUAUUAUCACGUGUAGCGUAC [Design 15] (Eterna round: R96, puzzle: Exclusion NG 1) and answer again.
Found: 29.9

Lookup: Now consider GUACACGGCUAGGAUAUCAUUCCUUGCGACCCUUGAGAAGGAGCCACAUGAGGAUCACCCAUGUCAUAUGCAGA [Eternabot (Original) Solution 38] (Eterna round: R97, puzzle: Exclusion 6) and answer again.
Found: 33.2

Lookup: Now consider GCGGACUGGAUCGUGAGAUCCGAGACAUGAGGAUCACCCAUGUAGGAUAUCGAUUGCUUUGCAGUCGAGAAGGGCGUGGUCCGC [JL denovo 16] (Eterna round: R96, puzzle: Exclusion NG 3) and answer again.
Found: 59.3

Lookup: Now consider UUUGAUUGCACAGGAUAUUGUCAUUUGAGUUGUCAAGAAGGGUGUACAUGAGGAUCACCCAUGUUAUGCUUUCCUCGCUCACUU [JR_ExcNG1_Sub009] (Eterna round: R96, puzzle: Exclusion NG 1) and answer again.
Found: 20

Lookup: Now consider GGGCCCGGUGUGAGGAUAUGUGAUCGGAAAUGAUCGUAGAAGGCACAUGAGGAUCACCCAUGUAAGCCGGGCCC [-31.3, -29.2 kcal, A 26%, 2-0] (Eterna round: R97, puzzle: Brourd's mod of Exclusion 4) and answer again.
Found: 289

Lookup: Now consider GUGGGUCCUCACGGUGCUACAUGAGGAUCACCCAUGUGGAUUGAGGAUAUCGUAACCCUACGGGACGAGAAGGCAGUUUACUGU [Ex NG3 #100] (Eterna round: R96, puzzle: Exclusion NG 3) and answer again.
Found: 23.1

Lookup: Now consider ACUAAUUGAGGAUAUACAUUGAUUUACAUGAGGAUCACCCAUGUUCAAACAUGUAUUUAUGUAGAAGGCAGAAGAA [JR_Ex5_Sub065] (Eterna round: R97, puzzle: Exclusion 5) and answer again.
Found: 17.5

Lookup: Now consider GACCAGCUAGGAUAUACAUGAGGAUCACCCAUGUGCAUUAAAGGGCUGGGUGACCCGCGUAGAAGGAGCGGGUC [Ustieded] (Eterna round: R97, puzzle: Exclusion 3) and answer again.
Found: 14.5

Lookup: Now consider AUAAAUCAUGUAGGAUAUGCGUGGAGAAGCUAUGCAGAAGGACAUGAGGAUCACCCAUGUGCUUCCGUCUGCGUACAGACGGAA [Mat - Exclusion NG 1 - Mod of JL - D36] (Eterna round: R96, puzzle: Exclusion NG 1) and answer again.
Found: 131

Lookup: Now consider CAGUACUGAGGAUAUACAUGAGGAUCACCCAUGUGUGUGAGUUUUGGAUGAAUGUUAUGUAGAAGGCGGUGCUG [JR_Ex3_Sub036] (Eterna round: R97, puzzle: Exclusion 3) and answer again.
Found: 466
